Parameter pIC50, tested on 11β-HSD1 (Homo sapiens, UniProt P28845), listed per item.
Sequence (P28845 whole entry): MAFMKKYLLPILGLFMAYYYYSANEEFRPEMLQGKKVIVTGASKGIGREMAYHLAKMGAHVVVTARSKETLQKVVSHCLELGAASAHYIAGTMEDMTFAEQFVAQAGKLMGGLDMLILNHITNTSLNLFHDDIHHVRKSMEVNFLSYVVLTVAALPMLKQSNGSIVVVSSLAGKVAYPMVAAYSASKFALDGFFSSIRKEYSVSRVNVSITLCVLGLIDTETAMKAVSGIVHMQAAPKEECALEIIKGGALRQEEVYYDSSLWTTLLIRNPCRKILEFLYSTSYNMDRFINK
Note on pIC50: it is the negative log10 of concentration, concentration in mol/L.

Short answer please: pIC50, 11β-HSD1 (Homo sapiens, UniProt P28845), entry O=C1N=C(NC2CCCCC2)SC12CCCCC2
7.40

Again, but for O=C1N=C(NC2CCCCC2)SC12CCC2
7.05

====

tested on: Caco-2 cells; assay: MTS assay, Caco-2; assay type: cell-based, human; details: Caco-2, MTS, 72 h
readout type: concentration at which a decrease in cell viability is observed

Consider the worked cases shown below.
[
  {
    "compound": "CC1(C)SC(NC2CCCCC2)=NC1=O",
    "measured value": "above 200 µM"
  },
  {
    "compound": "CC1SC(NC2CCCCC2)=NC1=O (stereo not drawn)",
    "measured value": "above 200 µM"
  },
  {
    "compound": "CCC1SC(NC2CCCCC2)=NC1=O (stereo not drawn)",
    "measured value": "above 200 µM"
  },
  {
    "compound": "CC(C)C1SC(NC2CCCCC2)=NC1=O (stereo not drawn)",
    "measured value": "above 200 µM"
  }
]

Short answer please: concentration at which a decrease in cell viability is observed, Caco-2 cells, entry O=C1N=C(NC2CCCCC2)SC12CCC2
above 200 µM

Again, but for O=C1N=C(NC2CCCCC2)SC1c1ccc(Br)cc1 (stereo not drawn)
1 µM

====

Molecular target: 11β-HSD2 (Homo sapiens, UniProt P80365)
Construct: human kidney microsomes were used as a source of the 11β‐HSD2 enzyme; tissue XenoTech Lot No. 1710160; host or cells: human kidney microsomes, mixed gender
Sequence (P80365 1-405): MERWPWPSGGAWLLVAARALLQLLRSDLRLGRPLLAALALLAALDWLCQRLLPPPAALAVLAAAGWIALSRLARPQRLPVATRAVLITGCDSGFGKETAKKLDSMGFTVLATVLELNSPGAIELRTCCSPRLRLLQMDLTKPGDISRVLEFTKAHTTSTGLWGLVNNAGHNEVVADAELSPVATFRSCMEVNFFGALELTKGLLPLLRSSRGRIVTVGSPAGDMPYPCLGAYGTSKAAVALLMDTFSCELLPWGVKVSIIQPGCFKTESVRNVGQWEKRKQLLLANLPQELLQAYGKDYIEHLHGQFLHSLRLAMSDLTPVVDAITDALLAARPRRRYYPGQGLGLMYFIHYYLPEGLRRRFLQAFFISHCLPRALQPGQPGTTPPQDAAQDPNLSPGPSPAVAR
Assay: 11β-HSD2 inhibition assay (cortisol to cortisone, human kidney microsomes, cortisol ELISA)
Assay type: biochemical
Settings: at a concentration of 10 µM
readout type: inhibition at 10 µM (%)
// units = %; emit number, no label

May I ask what inhibition at 10 µM has been recorded for O=C1N=C(NC2CCCCC2)SC12CCCCC2 [Compound 3h] ?
45.6

Again, but for CCC1SC(NC2CCCCC2)=NC1=O (stereo not drawn) [Compound 3b]
38.3

Again, but for O=C1N=C(NC2CCCCC2)SC1c1ccccc1 (stereo not drawn) [Compound 3f]
40

Again, but for CCCC1SC(NC2CCCCC2)=NC1=O (stereo not drawn) [Compound 3c]
47.1

Again, but for CC(C)C1SC(NC2CCCCC2)=NC1=O (stereo not drawn) [Compound 3d]
47

Again, but for O=C1N=C(NC2CCCCC2)SC12CCC2 [Compound 3i]
51

Again, but for CC1(C)SC(NC2CCCCC2)=NC1=O [Compound 3e]
38.6

Again, but for O=C1N=C(NC2CCCCC2)SC1c1ccc(Br)cc1 (stereo not drawn) [Compound 3g]
47.2

Again, but for CC1SC(NC2CCCCC2)=NC1=O (stereo not drawn) [Compound 3a]
42

Taken from paper PMC12470129.
